# STUDY_TARGET: feline FcRn complex (FcRn-α subunit and β-microglobulin), biotin labeled (feline)
# PROCEDURE_SUMMARY: SPR, pH 6
QUANTITY_MEASURED: pKd
Scale: negative log10 of molar concentration, which is what pKd denotes.

>  <BINDER>
feline IgG1a A378Q (antibody, part only; not given: Variable domains, not shown: another chain or arm of the molecule) constant: ASTTAPSVFPLAPSCGTTSGATVALACLVLGYFPEPVTVSWNSGALTSGVHTFPAVLQASGLYSLSSMVTVPSSRWLSDTFTCNVAHPPSNTKVDKTVRKTDHPPGPKPCDCPKCPPPEMLGGPSIFIFPPKPKDTLSISRTPEVTCLVVDLGPDDSDVQITWFVDNTQVYTAKTSPREEQFNSTYRVVSVLPILHQDWLKGKEFKCKVNSKSLPSPIERTISKAKGQPHEPQVYVLPPAQEELSRNKVSVTCLIKSFHPPDIQVEWEITGQPEPENNYRTTPPQLDSDGTYFVYSKLSVDRSHWQRGNTYTCSVSHEALHSHHTQKSLTQSPGK

>  <QUANTITY_MEASURED>
pKd

>  <OBS_VALUE>
7.31

$$$$

The binder listed as feline IgG1a S252I (antibody, part only; not given: Variable domains, not shown: another chain or arm of the molecule) constant: ASTTAPSVFPLAPSCGTTSGATVALACLVLGYFPEPVTVSWNSGALTSGVHTFPAVLQASGLYSLSSMVTVPSSRWLSDTFTCNVAHPPSNTKVDKTVRKTDHPPGPKPCDCPKCPPPEMLGGPSIFIFPPKPKDTLIISRTPEVTCLVVDLGPDDSDVQITWFVDNTQVYTAKTSPREEQFNSTYRVVSVLPILHQDWLKGKEFKCKVNSKSLPSPIERTISKAKGQPHEPQVYVLPPAQEELSRNKVSVTCLIKSFHPPDIAVEWEITGQPEPENNYRTTPPQLDSDGTYFVYSKLSVDRSHWQRGNTYTCSVSHEALHSHHTQKSLTQSPGK shows pKd equal to 6.81
